Entry source: patent US20250215030A1

# assay system: Recombinant STAT3 protein (STAT3(G127-I722)) (Homo sapiens, UniProt P40763)
# Construct: STAT3(G127-I722)
# Sequence (P40763 127-722, species assumed): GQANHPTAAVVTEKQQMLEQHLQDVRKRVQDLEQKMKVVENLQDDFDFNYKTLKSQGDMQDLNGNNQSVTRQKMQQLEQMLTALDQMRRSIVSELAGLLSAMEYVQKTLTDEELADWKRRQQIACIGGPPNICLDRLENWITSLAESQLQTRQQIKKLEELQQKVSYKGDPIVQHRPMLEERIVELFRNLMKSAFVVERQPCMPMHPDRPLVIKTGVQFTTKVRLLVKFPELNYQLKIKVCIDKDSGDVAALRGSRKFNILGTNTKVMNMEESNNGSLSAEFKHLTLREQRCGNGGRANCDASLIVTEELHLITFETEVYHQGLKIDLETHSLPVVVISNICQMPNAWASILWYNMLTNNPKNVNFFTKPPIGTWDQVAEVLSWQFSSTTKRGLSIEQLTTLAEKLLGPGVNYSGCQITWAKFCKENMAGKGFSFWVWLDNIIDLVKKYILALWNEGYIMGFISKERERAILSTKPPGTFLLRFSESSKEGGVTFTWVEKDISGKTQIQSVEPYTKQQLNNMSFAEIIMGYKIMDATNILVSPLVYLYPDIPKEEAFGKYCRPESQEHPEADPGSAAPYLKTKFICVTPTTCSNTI
# method summary: STAT3 Fluorescence Polarization (FP) Assay
# measurement setup: STAT3(G127-I722) 25 nM, probe 5-FAM-GpYLPQTV-NH2 2 nM, 45-minute incubation
Known IC50 of a selection of compounds
readout label: IC50

- compound: "Cc1cn(C)c(N2C[C@H](NC(=O)[C@@H]3CC[C@@H]4C[C@H]5C[C@H]5C[C@H](NC(=O)c5cc6cc(C(F)P(=O)(O)O)ccc6s5)C(=O)N43)[C@@H](F)C2)n1 (stereo partly shown)"
  assay system: "Recombinant STAT3 protein (STAT3(G127-I722)) (Homo sapiens, UniProt P40763)"
  result: "< 100 nM"
- compound: "COC1(c2nccn2C)CN(C(=O)[C@@H]2CC[C@@H]3CC4(C)CC4C[C@H](NC(=O)c4cc5cc(C(F)(F)P(=O)(O)O)ccc5s4)C(=O)N32)C1 (stereo in doubt)"
  assay system: "Recombinant STAT3 protein (STAT3(G127-I722)) (Homo sapiens, UniProt P40763)"
  result: "< 100 nM"
- compound: "Cc1ncccc1C1CN(C(=O)[C@@H]2CC[C@@H]3C[C@@H]4C[C@@H]4C[C@H](NC(=O)c4cc5cc(C(F)(F)P(=O)(O)O)ccc5s4)C(=O)N32)C1"
  assay system: "Recombinant STAT3 protein (STAT3(G127-I722)) (Homo sapiens, UniProt P40763)"
  result: "< 100 nM"
- compound: "COC[C@@H]1CCN1c1ccncc1C1CN(C(=O)[C@@H]2CC[C@@H]3C[C@H]4C[C@H]4C[C@H](NC(=O)c4cc5cc([C@H](F)P(=O)(O)O)ccc5s4)C(=O)N32)C1 (single isomer, unassigned)"
  assay system: "Recombinant STAT3 protein (STAT3(G127-I722)) (Homo sapiens, UniProt P40763)"
  result: "100 to 1000 nM"
- compound: "Cc1ccccc1C1CN(C(=O)[C@@H]2CC[C@@H]3C[C@H]4C[C@H]4C[C@H](NC(=O)c4cc5cc(C(F)(F)P(=O)(O)O)ccc5s4)C(=O)N32)C1"
  assay system: "Recombinant STAT3 protein (STAT3(G127-I722)) (Homo sapiens, UniProt P40763)"
  result: "< 100 nM"
- compound: "Cc1ccncc1N1C[C@H](NC(=O)[C@@H]2CC[C@@H]3C[C@H]4C[C@H]4C[C@H](NC(=O)c4cc5cc(CP(=O)(O)O)ccc5s4)C(=O)N32)[C@@H](F)C1"
  assay system: "Recombinant STAT3 protein (STAT3(G127-I722)) (Homo sapiens, UniProt P40763)"
  result: "100 to 1000 nM"
- compound: "O=C(N[C@H]1C[C@@H]2C[C@@H]2C[C@H]2CC[C@@H](C(=O)N3CC(c4ncco4)C3)N2C1=O)c1cc2cc(C(F)P(=O)(O)O)ccc2s1 (stereo partly shown)"
  assay system: "Recombinant STAT3 protein (STAT3(G127-I722)) (Homo sapiens, UniProt P40763)"
  result: "< 100 nM"
- compound: "CC12CC1C[C@H](NC(=O)c1cc3cc(C(F)(F)P(=O)(O)O)ccc3s1)C(=O)N1[C@H](CC[C@H]1C(=O)N1CC(c3cccnc3)C1)C2 (stereo in doubt)"
  assay system: "Recombinant STAT3 protein (STAT3(G127-I722)) (Homo sapiens, UniProt P40763)"
  result: "< 100 nM"
- compound: "Cc1cccc(C2CN(C(=O)[C@@H]3CC[C@@H]4C[C@@H]5C[C@@H]5C[C@H](NC(=O)c5cc6cc(C(F)(F)P(=O)(O)O)ccc6s5)C(=O)N43)C2)n1"
  assay system: "Recombinant STAT3 protein (STAT3(G127-I722)) (Homo sapiens, UniProt P40763)"
  result: "< 100 nM"
- compound: "COC1(c2nccn2C)CN(C(=O)[C@@H]2CC[C@@H]3C[C@@]4(C)C[C@H]4C[C@H](NC(=O)c4cc5cc(C(F)(F)P(=O)(O)O)ccc5s4)C(=O)N32)C1"
  assay system: "Recombinant STAT3 protein (STAT3(G127-I722)) (Homo sapiens, UniProt P40763)"
  result: "100 to 1000 nM"
